assay.details: clinical
condition.summary: human, in vivo, po, 500 mg, AUC (AUC0–tau)
reported.metric: AUC (ng·h/mL)
Numbers only, in ng·h/mL.

Please give the measured AUC for this molecule: C#CC[C@@H](C(=O)N[C@H](/C=C/C(=O)OCC)C[C@@H]1CCNC1=O)n1cccc(NC(=O)c2cc(C)on2)c1=O
302

* * *

assay.details: clinical
condition.summary: human, in vivo, po, 200 mg, tmax
reported.metric: Tmax
Please state the value followed by its unit.

Please give the measured Tmax for this molecule: C#CC[C@@H](C(=O)N[C@H](/C=C/C(=O)OCC)C[C@@H]1CCNC1=O)n1cccc(NC(=O)c2cc(C)on2)c1=O [V-7404]
30 min

* * *

assay.details: clinical
condition.summary: human, in vivo, po, 200 mg, Cmax
reported.metric: Cmax (ng/mL)
Answers are plain numbers, in ng/mL.

Please give the measured Cmax for this compound: C#CC[C@@H](C(=O)N[C@H](/C=C/C(=O)OCC)C[C@@H]1CCNC1=O)n1cccc(NC(=O)c2cc(C)on2)c1=O [V-7404]
83.3

* * *

assay.details: in vivo
condition.summary: dog, po
reported.metric: NOAEL (mg/kg/day)
One number for each entry, in mg/kg/day.

Please give the measured NOAEL for this compound: C#CC[C@@H](C(=O)N[C@H](/C=C/C(=O)OCC)C[C@@H]1CCNC1=O)n1cccc(NC(=O)c2cc(C)on2)c1=O
1500

* * *

assay.details: clinical
condition.summary: human, in vivo, po, 200 mg, Vz/F
reported.metric: Vd/F
Please state the value followed by its unit.

Please give the measured Vd/F for this compound: C#CC[C@@H](C(=O)N[C@H](/C=C/C(=O)OCC)C[C@@H]1CCNC1=O)n1cccc(NC(=O)c2cc(C)on2)c1=O
1170 L

* * *

assay.details: clinical
condition.summary: human, in vivo, tmax(4–24 h)
reported.metric: Tmax (min)
One number for each entry, in min.

Please give the measured Tmax for this molecule: C#CC[C@@H](C(=O)N[C@H](/C=C/C(=O)OCC)C[C@@H]1CCNC1=O)n1cccc(NC(=O)c2cc(C)on2)c1=O [V-7404]
45

* * *

assay.details: clinical
condition.summary: human, in vivo, po, 200 mg, AUC (AUC0–inf)
reported.metric: AUC(0-inf) (ng·h/mL)
Answers are plain numbers, in ng·h/mL.

Please give the measured AUC(0-inf) for this compound: C#CC[C@@H](C(=O)N[C@H](/C=C/C(=O)OCC)C[C@@H]1CCNC1=O)n1cccc(NC(=O)c2cc(C)on2)c1=O [V-7404]
77.4

* * *

assay.details: in vivo
condition.summary: rat, po
reported.metric: NOAEL (mg/kg/day)
Give bare numbers, in mg/kg/day.

Please give the measured NOAEL for this compound: C#CC[C@@H](C(=O)N[C@H](/C=C/C(=O)OCC)C[C@@H]1CCNC1=O)n1cccc(NC(=O)c2cc(C)on2)c1=O
1500

* * *

assay.details: clinical
condition.summary: human, in vivo, po, 500 mg, Cmax
reported.metric: Cmax at 14 days
Please state the value followed by its unit.

Please give the measured Cmax at 14 days for this compound: C#CC[C@@H](C(=O)N[C@H](/C=C/C(=O)OCC)C[C@@H]1CCNC1=O)n1cccc(NC(=O)c2cc(C)on2)c1=O [V-7404]
370 ng/mL

* * *

assay.details: clinical
condition.summary: human, in vivo, tmax(0–4 h)
reported.metric: Tmax (min)
Numbers only, in min.

Please give the measured Tmax for this compound: C#CC[C@@H](C(=O)N[C@H](/C=C/C(=O)OCC)C[C@@H]1CCNC1=O)n1cccc(NC(=O)c2cc(C)on2)c1=O [V-7404]
30
